Every entry's value here was drawn from ChEMBL document CHEMBL2074469.

# System Under Test: MRP4 (ATP-binding cassette sub-family C member 4) (Homo sapiens, UniProt O15439)
# Measurement Protocol: TP_TRANSPORTER: inhibition of MTX uptake (MTX: 20 uM, Verapamil: 30 uM) in membrane vesicles from MRP4-expressing Sf9 cells
# Format: functional, cell membranes, Membrane vesicle
# Parameters: scale not given: the % may be the effect or the level left
# Experimental Parameters: probe MTX (20 uM), read-out: Activity
Readout Kind: activity at 30 µM (%)
Give the value in % but do not write % after it.

Noted activity at 30 µM for COc1ccc(CCN(C)CCCC(C#N)(c2ccc(OC)c(OC)c2)C(C)C)cc1OC (stereo unspecified) , tested on MRP4 (ATP-binding cassette sub-family C member 4) (Homo sapiens, UniProt O15439): 53.8

###

# System Under Test: MRP4 (ATP-binding cassette sub-family C member 4) (Homo sapiens)
# Measurement Protocol: TP_TRANSPORTER: inhibition of MTX uptake (MTX: 20 uM, Sulfinpyrazone: 300 uM) in membrane vesicles from MRP4-expressing Sf9 cells
# Assay type: functional, cell membranes, Membrane vesicle
# Design: scale not given: the % may be the effect or the level left
# Experimental Parameters: probe MTX (20 uM), read-out: Activity
Readout Kind: activity at 300 µM

O=C1C(CC[S+]([O-])c2ccccc2)C(=O)N(c2ccccc2)N1c1ccccc1 (stereo unspecified) has a reported activity at 300 µM of 23.3%

###

# System Under Test: MRP4 (ATP-binding cassette sub-family C member 4) (Homo sapiens)
# Sequence (O15439 whole entry): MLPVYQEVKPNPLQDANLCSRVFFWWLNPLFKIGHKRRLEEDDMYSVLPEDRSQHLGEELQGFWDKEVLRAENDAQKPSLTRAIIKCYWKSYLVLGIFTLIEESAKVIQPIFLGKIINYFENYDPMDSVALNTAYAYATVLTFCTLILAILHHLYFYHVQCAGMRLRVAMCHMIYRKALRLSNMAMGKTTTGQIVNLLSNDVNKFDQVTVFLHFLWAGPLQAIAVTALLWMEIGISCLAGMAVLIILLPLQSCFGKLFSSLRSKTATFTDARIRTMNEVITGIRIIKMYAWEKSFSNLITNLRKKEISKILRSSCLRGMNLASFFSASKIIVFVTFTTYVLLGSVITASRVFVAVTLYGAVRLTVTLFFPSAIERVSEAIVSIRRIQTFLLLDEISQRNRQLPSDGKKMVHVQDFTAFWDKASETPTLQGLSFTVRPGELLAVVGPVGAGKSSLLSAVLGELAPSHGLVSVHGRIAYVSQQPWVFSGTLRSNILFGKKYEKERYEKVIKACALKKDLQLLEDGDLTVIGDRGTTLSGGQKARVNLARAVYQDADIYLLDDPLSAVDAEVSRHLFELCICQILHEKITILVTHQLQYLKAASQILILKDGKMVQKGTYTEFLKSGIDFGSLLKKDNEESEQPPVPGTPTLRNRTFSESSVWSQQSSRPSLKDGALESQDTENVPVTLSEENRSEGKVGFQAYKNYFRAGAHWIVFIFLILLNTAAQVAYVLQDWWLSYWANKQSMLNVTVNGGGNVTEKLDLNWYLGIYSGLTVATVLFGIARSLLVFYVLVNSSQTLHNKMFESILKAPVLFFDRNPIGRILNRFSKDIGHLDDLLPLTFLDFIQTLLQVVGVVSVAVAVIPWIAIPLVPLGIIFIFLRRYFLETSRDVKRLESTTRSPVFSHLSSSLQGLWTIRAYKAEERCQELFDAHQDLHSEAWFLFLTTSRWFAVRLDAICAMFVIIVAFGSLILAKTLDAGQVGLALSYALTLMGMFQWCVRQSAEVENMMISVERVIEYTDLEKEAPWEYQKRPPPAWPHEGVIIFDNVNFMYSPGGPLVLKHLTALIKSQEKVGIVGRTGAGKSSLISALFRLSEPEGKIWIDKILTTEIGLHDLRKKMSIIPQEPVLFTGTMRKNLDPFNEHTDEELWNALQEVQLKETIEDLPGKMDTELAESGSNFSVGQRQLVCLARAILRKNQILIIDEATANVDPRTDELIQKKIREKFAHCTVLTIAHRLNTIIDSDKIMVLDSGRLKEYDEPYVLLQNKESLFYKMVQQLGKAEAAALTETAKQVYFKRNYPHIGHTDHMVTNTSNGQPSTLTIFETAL
# Measurement Protocol: TP_TRANSPORTER: inhibition of MTX uptake (MTX: 20 uM, MK571: 1 uM) in membrane vesicles from MRP4-expressing Sf9 cells
# Assay type: functional, cell membranes, Membrane vesicle
# Design: scale not given: the % may be the effect or the level left
# Experimental Parameters: probe MTX (20 uM), read-out: Activity
Readout Kind: activity at 1 µM (%)
Give the value in % but do not write % after it.

CN(C)C(=O)CCSC(SCCC(=O)O)c1cccc(/C=C/c2ccc3ccc(Cl)cc3n2)c1 (stereo unspecified) has a reported activity at 1 µM of 56.4

###

# System Under Test: UniProt:O15439
# Measurement Protocol: TP_TRANSPORTER: inhibition of MTX uptake (MTX: 20 uM, Probenecid: 300 uM) in membrane vesicles from MRP4-expressing Sf9 cells
# Assay type: functional, cell membranes, Membrane vesicle
# Design: scale not given: the % may be the effect or the level left
# Experimental Parameters: probe MTX (20 uM), read-out: Activity
Readout Kind: activity at 300 µM
Provide the measurement as a number trailed by its unit.

CCCN(CCC)S(=O)(=O)c1ccc(C(=O)O)cc1 has a reported activity at 300 µM of 49.4%

###

# System Under Test: MRP4 (ATP-binding cassette sub-family C member 4) (Homo sapiens, UniProt O15439)
# Measurement Protocol: TP_TRANSPORTER: inhibition of MTX uptake (MTX: 20 uM, Leucovorin: 300 uM) in membrane vesicles from MRP4-expressing Sf9 cells
# Type: functional, cell membranes, Membrane vesicle
# Set-up: scale not given: the % may be the effect or the level left
# Experimental Parameters: probe MTX (20 uM), read-out: Activity
Readout Kind: activity at 300 µM (%)
Give the value in % but do not write % after it.

Nc1nc2c(c(=O)[nH]1)N(C=O)C(CNc1ccc(C(=O)N[C@@H](CCC(=O)O)C(=O)O)cc1)CN2 (stereo partly specified) [LEUCOVORIN] has a reported activity at 300 µM of 71.2
